Provenance of the data: paper PMC8979682

Assign % inhibitions (α-glucosidase) to each entry below.
Test system: α-glucosidase
Assay: in vitro α-glucosidase inhibition
Assay type: biochemical
Conditions: 250 µg/ml
Method: For in vitro α-glucosidase activity, samples were prepared by adding glucopyranoside to phosphate buffer solvent, and different concentrations of the synthesized compounds (31.25, 62.5, 125, 250, and 500 µg/ml), respectively, were added to this solution and then the enzyme glucosidase in distilled water (0.5 µg/ml) was also added to the above mixture. The reaction mixture thus prepared was subjected to incubation at 37°C for 20 minutes. […]

-- ask # input molecule: C[C@H]1O[C@H](O[C@H]2[C@H](O)[C@@H](O)[C@@H](O[C@H]3[C@H](O)[C@@H](O)C(O)O[C@@H]3CO)O[C@@H]2CO)[C@H](O)[C@@H](O)[C@@H]1N[C@H]1C=C(CO)[C@@H](O)[C@H](O)[C@H]1O (stereo partly shown) [Acarbose, reference compound] ; wanted: its % inhibitions (α-glucosidase)
-- reply 86.45 ± 0.90%

-- ask Now try O=C1CCCCC1C1CC(=O)N(Cc2ccccc2)C1=O (stereo not shown) [BW2] .
-- reply 81.34 ± 0.55^∗ %

-- ask Now try O=C1CCCCC1C1CC(=O)N(c2ccccc2)C1=O (stereo not shown) [BW1] .
-- reply 83.45 ± 0.90^ns %

-- ask Now try O=C1CCCCC1C1CC(=O)N(c2ccc(Br)cc2)C1=O (stereo not shown) [BW3] .
-- reply 72.08 ± 0.47^∗∗∗ %
